These measurements were taken from paper PMC9919699.

# System: α-glucosidase
# assay.summary: α-glucosidase enzyme inhibition assay (starch substrate, anthrone reagent, 640 nm)
# Format: biochemical
# protocol.conditions: 250 µg/mL, Table 4 (Met series)

compound: CN(C)C(=N)N=C(N)N [Met, N,N-dimethyltriimidodicarbonic diamide, reference compound]
system.tested: α-glucosidase
% Inhibition / %: 41.73
--
compound: CC(C)=NC(=N)NC(=N)N(C)C
system.tested: α-glucosidase
% Inhibition / %: 22.85
--
compound: CN(C)C(=N)NC(=N)N=C(c1ccccc1)C(O)c1ccccc1 (stereo not drawn)
system.tested: α-glucosidase
% Inhibition / %: 10.79

---

The entries below come with measured IC50 values attached.
# system.tested: α-amylase
# assay.summary: α-amylase enzyme inhibition assay (starch, dinitro-salicylic acid, 540 nm)
# Assay type: biochemical
# protocol.conditions: Table 8 (MCu series), read-out: IC50
value.kind: IC50 (µM)

compound: CN(C)C(=N)NC(=N)N=C(c1ccccc1)c1ccccc1.CN(C)C(=N)NC(=N)N=C(c1ccccc1)c1ccccc1.O.O.O.O.O.O=S(=O)([O-])[O-].[Cu+2] [MCu7]
unit.annotation: µM
value.reported: 200
//
compound: CC(=NC(=N)NC(=N)N(C)C)c1ccccc1.CC(=NC(=N)NC(=N)N(C)C)c1ccccc1.O.O.O.O.O.O=S(=O)([O-])[O-].[Cu+2] [MCu6]
unit.annotation: µM
value.reported: 320
//
compound: CN(C)C(=N)NC(=N)N=Cc1ccccc1O.CN(C)C(=N)NC(=N)N=Cc1ccccc1O.O.O.O.O.O.O=S(=O)([O-])[O-].[Cu+2] [MCu2]
unit.annotation: µM
value.reported: 790
